# study-target: T1, cynomolgus PD-L1-His (Sino Biological, Cat. 90251-C08H) (cynomolgus, UniProt Q9NZQ7 19-238 (human entry))
# T1 construct: Bought protein; also called Cyno PD-L1; Cynomolgus PD-L1 ECD-His; not shown: His tag
# T1 sequence (Q9NZQ7 other isoform, or with tags, fused parts or gaps C08H C08H limits assumed): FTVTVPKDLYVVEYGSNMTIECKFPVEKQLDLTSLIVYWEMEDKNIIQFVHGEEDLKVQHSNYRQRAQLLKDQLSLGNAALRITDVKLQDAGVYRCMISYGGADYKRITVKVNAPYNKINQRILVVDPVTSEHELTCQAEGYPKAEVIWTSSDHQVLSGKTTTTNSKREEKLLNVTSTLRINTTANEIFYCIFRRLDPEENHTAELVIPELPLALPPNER
# protocol-text: ELISA, coated cyno PD-L1-His
readout-type: EC50 (nM)

>>> measured_value("55H3/76D6 (antibody, human IgG1, V domains shown) VH: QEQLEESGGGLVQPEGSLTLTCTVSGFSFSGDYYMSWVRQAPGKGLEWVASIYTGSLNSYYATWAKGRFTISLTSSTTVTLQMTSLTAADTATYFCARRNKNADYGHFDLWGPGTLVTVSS VL: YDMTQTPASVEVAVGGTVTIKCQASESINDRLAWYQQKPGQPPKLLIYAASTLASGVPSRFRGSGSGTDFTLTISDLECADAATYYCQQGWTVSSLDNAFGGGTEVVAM")
0.0126
>>> measured_value("28B3 (antibody, human IgG1, V domains shown) VH: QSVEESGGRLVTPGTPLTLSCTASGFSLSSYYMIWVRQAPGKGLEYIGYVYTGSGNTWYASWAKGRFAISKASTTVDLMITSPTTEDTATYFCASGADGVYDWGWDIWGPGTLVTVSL VL: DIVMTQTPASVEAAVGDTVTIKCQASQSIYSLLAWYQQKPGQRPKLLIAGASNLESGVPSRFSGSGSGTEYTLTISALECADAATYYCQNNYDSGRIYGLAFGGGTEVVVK")
0.0177

All values here come from patent US20250171542A1.
